target: Solute carrier family 2, facilitated glucose transporter member 1 (Homo sapiens) (UniProt P11166); experiment: ST_JUDE_LEISH: Cytotoxicity at 2uM final concentration against transgenic Leishmania Mexicana promastigotes LmGLUT1 that are glucose transport deficient and complemented with the human glucose transporter GLUT1. Activity is measured by DNA content using SYBR green in vitro; format: functional
Sequence (P11166 whole entry): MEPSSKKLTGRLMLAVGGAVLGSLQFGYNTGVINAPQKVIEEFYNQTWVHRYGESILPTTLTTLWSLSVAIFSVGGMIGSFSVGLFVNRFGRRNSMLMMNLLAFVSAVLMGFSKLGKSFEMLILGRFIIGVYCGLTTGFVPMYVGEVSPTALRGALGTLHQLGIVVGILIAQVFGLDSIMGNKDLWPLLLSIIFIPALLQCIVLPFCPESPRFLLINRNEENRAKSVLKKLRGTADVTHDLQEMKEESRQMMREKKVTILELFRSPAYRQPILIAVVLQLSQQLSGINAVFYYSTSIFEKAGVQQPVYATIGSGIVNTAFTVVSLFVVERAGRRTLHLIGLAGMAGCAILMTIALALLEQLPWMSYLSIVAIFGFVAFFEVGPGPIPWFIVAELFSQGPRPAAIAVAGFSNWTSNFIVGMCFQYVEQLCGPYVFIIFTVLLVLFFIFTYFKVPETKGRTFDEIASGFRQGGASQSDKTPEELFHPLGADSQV
Below: a set of entries, each annotated with reported inhibition.
State just the number; it will be interpreted in %.

// solved cases for inhibition follow
| cpd_smiles | inhibition, % |
| --- | --- |
| O=C(/C=C/c1ccc2ccccc2c1)NCCCCCN1CCC(c2c[nH]c3ccccc23)CC1 | 3.34 |
| CNc1ccc(CNCc2ccc(-c3ccc(-c4nc5cc(F)ccc5[nH]4)cc3)cc2)cc1 | 3.2 |

Moving on to the next compound.
Problem: Item under review: Cc1cc(NC(=O)NCCN2CCC(NC(=O)c3ccc(Cl)cc3)CC2)c2ccccc2n1 . Reported inhibition?
Result: 1.7
